# TEST_DETAILS: recombinant barcode read abundance after kanamycin selection (control-corrected) (log10(CPM+1)); higher = more efficient recombination; sequences stand for … in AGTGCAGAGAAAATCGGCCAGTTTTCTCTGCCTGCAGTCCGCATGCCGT…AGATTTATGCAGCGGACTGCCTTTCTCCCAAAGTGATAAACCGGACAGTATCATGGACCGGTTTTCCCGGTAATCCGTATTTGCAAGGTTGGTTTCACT; site = the 11-nt target;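 also: IS621 recombinase and bridge RNA in Escherichia coli cells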
Each entry below carries its reported recombinant barcode read abundance (log10).

| SEQ_STRING | REPORTED |
| --- | --- |
| TCTAATTCTTGGGTTCTAACCTGTTGCGT (site TCTTATTCTAC) | 0.047 |
| CTCGTGTCTTGGGTTCTAACCTGTTGCAT (site AGAACTACTTG) | 0.00883 |

Data point: GTGGCCACTTGGGTTCTAACCTGTTGCCT (site GTTGCCACTAG) ; recombinant barcode read abundance (log10) = 0.229

Field recombinant barcode read abundance (log10) (entry AACAGCTCTTGGGTTCTAACCTGTTGCCT (site AACAGTTCTAG) ) reads 0.15

recombinant barcode read abundance (log10) for CACGCATCTTGGGTTCTAACCTGTTGCCT (site CACGCATCTAG) is 0.822

Input ACAATATCTTGGGTTCTAACCTGTTGCCT (site ACAATATCTAG) . Output recombinant barcode read abundance (log10): 0.774

* * *

# TEST_DETAILS: recombinant barcode read abundance after kanamycin selection (control-corrected) (log10(CPM+1)); higher = more efficient recombination; sequences stand for … in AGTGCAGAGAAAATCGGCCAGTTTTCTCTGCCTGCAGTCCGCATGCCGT…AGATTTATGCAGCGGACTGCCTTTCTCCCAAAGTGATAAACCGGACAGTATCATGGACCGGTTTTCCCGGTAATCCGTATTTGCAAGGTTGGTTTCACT; site = the 11-nt target
Overview of reported recombinant barcode read abundance (log10) across a group of sequences:
Reply: number alone, nothing else.

Some solved cases for reference:
| SEQ_STRING | REPORTED |
| --- | --- |
| AGAGTCTCTTGGGTTCTAACCTGTTGCTG (site AGAGTCTCTCA) | 0.78 |
| CCTAATACTTGGGTTCTAACCTGTTGCGT (site CCTTAGACTAC) | 0.0351 |
| GAAACGGCTTGGGTTCTAACCTGTTGCCT (site GAAACGGCTAG) | 0.091 |
| GGGGCACCTTGGGTTCTAACCTGTTGCTT (site GGGGCACCTAT) | 2.06 |
| CTCAAAGCTTGGGTTCTAACCTGTTGCCG (site CTCAAAGCTCG) | 0.258 |
| GAATTAGCTTGGGTTCTAACCTGTTGCGG (site GTATTAGCTCG) | 0.287 |

Short answer for TACTATACTTGGGTTCTAACCTGTTGCCT (site TACTATCCTAG) : recombinant barcode read abundance (log10) was 0.131

Consider CGATTAACTTGGGTTCTAACCTGTTGCCT (site CGATTACCTAG) . Its measured recombinant barcode read abundance (log10) is 0.361

For record CTAAAACCTTGGGTTCTAACCTGTTGCCT (site ATAAAACCTAG) the listed recombinant barcode read abundance (log10) is 0.0167

Entry CTTAGGACTTGGGTTCTAACCTGTTGCCC (site CTTAGGACTAG) — recorded recombinant barcode read abundance (log10) = 0.374

Short answer for TGTTGGTCTTGGGTTCTAACCTGTTGCTT (site GAACTCCCTCC) : recombinant barcode read abundance (log10) was 0.0579

# recombinant barcode read abundance (log10) of GTGTCGCCTTGGGTTCTAACCTGTTGCCT (site GTGTCGCCTAC) = 0.224

Record TAGCCGGCTTGGGTTCTAACCTGTTGCTT (site TAGCCGGCTAG) . Reported recombinant barcode read abundance (log10): 0.386

Measured recombinant barcode read abundance (log10) of GCCCATGCTTGGGTTCTAACCTGTTGCGG (site CATTTCACTAG) : 0.144

The sequence CACTTTGCTTGGGTTCTAACCTGTTGCCT (site AGGGAGACTGA) showed recombinant barcode read abundance (log10) equal to 0.145
